REPORTED_METRIC: melting point

CCOP(=O)(CCCCn1cc(CN2C(=O)c3cccc4cccc(c34)C2=O)nn1)OCC [Compound 14d] | 131 to 132 °C

*Q* Please report the recorded melting point for CCOP(=O)(CC(O)Cn1cc(CN2C(=O)c3cccc4cccc(c34)C2=O)nn1)OCC (stereo not drawn) [Compound 14f] .
*A* > 260 °C

*Q* Also, `C#CCN1C(=O)c2cccc3cccc(c23)C1=O` please.
*A* 239 to 240 °C

*Q* Moving on to the next compound: CCOP(=O)(CC(O)Cn1cc(CN2C(=O)c3cccc4c(Br)ccc(c34)C2=O)nn1)OCC (stereo not drawn) [Compound 15f]
*A* 152 to 153 °C

*Q* Then what about the compound CCOP(=O)(Cn1cc(CN2C(=O)c3cccc4cc([N+](=O)[O-])cc(c34)C2=O)nn1)OCC [Compound 16a] ?
*A* 147 to 148 °C

*Q* Likewise for CCOP(=O)(Cn1cc(CN2C(=O)c3cccc4cccc(c34)C2=O)nn1)OCC [Compound 14a] ?
*A* 110 to 111 °C

*Q* Now the compound CCOP(=O)(OCC)C(O)Cn1cc(CN2C(=O)c3cccc4c(Br)ccc(c34)C2=O)nn1 (stereo not drawn) [Compound 15e]
*A* 198 to 200 °C

*Q* Further, for CCOP(=O)(CCCn1cc(CN2C(=O)c3cccc4cc([N+](=O)[O-])cc(c34)C2=O)nn1)OCC [Compound 16c] ?
*A* 113 to 114 °C

*Q* And CCOP(=O)(CNC(=O)Cn1cc(CN2C(=O)c3cccc4cc([N+](=O)[O-])cc(c34)C2=O)nn1)OCC [Compound 16i] ?
*A* 217 to 219 °C
